Parameter: inhibition. Scope: all listed entries.
# methodNotes: 384-well plate pilot, post-Golgi transport modulator project, inhibition of yeast transport mutant growth (AID 636)
# conditionInfo: absorbance 615 nm, about 18 h, stronger effect = higher value
parameterMeasured: inhibition (%)

INSERT INTO measurements (molecule, parametermeasured, recordedmeasurement) VALUES
  ('COc1ccc(CN(Cc2cc3cc4c(cc3[nH]c2=O)OCO4)C(=O)NC2CCCCC2)cc1', 'inhibition', 1.22),
  ('CCN=C1SC(CC(=O)Nc2ccccc2OCC)C(=O)N1CC (stereo not drawn)', 'inhibition', -2.05),
  ('CC1Cc2ccccc2N1C(=O)CSc1nc2ccccc2n1CC(=O)N1CCOCC1 (stereo not drawn)', 'inhibition', -6.13),
  ('COC(=O)Cn1c(C)nc2c(sc3nc(C)cc(C)c32)c1=O', 'inhibition', -4.61),
  ('CC(=O)Nc1ccc(Cc2ccncc2)cc1', 'inhibition', -4.8),
  ('CCN(CC)CCCNc1oc(-c2cccc(Cl)c2)nc1C#N', 'inhibition', -4.55),
  ('CCNc1ccc(S(=O)(=O)C(F)(F)F)cc1NC(=O)C12CCC(CC1)C2', 'inhibition', 1.78),
  ('O=c1oc2ccccc2c(N2CCCCC2)c1CN1CCCCC1', 'inhibition', -1.05),
  ('Cc1cccc(NC(=O)CCCCCN2C(=O)c3ccccc3C2=O)n1', 'inhibition', -7.12),
  ('CC(C)(C)c1ccc(C(O)CCCN2CCC(C(O)(c3ccccc3)c3ccccc3)CC2)cc1 (stereo not drawn)', 'inhibition', -1.95),
  ('Cc1ccc(NC(=O)CSC2=C(C#N)C(c3ccc4c(c3)OCO4)CC(=O)N2)cc1C (stereo not drawn)', 'inhibition', 7.7),
  ('CNC(=O)OC(C)CNS(=O)(=O)c1ccc(C)cc1 (stereo not drawn)', 'inhibition', -7.4),
  ('CCOC(=O)CSC1=Nc2ccccc2C2=NC(CC(=O)NCc3cccs3)C(=O)N12 (stereo not drawn)', 'inhibition', -6.75),
  ('CCSc1nc2ccccc2n1CCC(=O)O', 'inhibition', -5.21),
  ('O=c1cc(CSc2nnc(COc3ccc(Cl)cc3)o2)c2ccccc2[nH]1', 'inhibition', -2.11),
  ('O=c1[nH]c(Nc2ccccc2)cc2ccccc12', 'inhibition', 2.5),
  ('Nc1nc(NC(=O)c2cccs2)nn1-c1ccccc1', 'inhibition', -6.45),
  ('Cc1ccc(-n2nc3cc(Cl)c(NC(=O)c4ccco4)cc3n2)cc1', 'inhibition', -7.53),
  ('Cc1nnc(SCc2cccc(Oc3ccccc3)c2)n1N', 'inhibition', -5.89),
  ('Cc1ccc(C2=N/C(=C/N3CCOCC3)C(=O)O2)cc1', 'inhibition', -2.08),
  ('CCCCOc1ccc(-c2ncc(C(=O)OCC)c(N)n2)cc1', 'inhibition', -6.8),
  ('COc1ccc(S(=O)(=O)NC2CCCCC2)c(C)c1C', 'inhibition', -2.89),
  ('CCc1nnc(NC(=O)C2Cc3ccccc3CN2S(=O)(=O)c2cccs2)s1 (stereo not drawn)', 'inhibition', -2.34);

----------
Parameter: viability. Scope: all listed entries.
# methodNotes: reversal of MRP1-mediated doxorubicin resistance, pilot screen, H69AR cells, doxorubicin co-treatment (AID 601)
# conditionInfo: H69AR cells + 2 uM doxorubicin, CellTiter-Glo, 72 h; measured here: viability with 2 uM doxorubicin; at 10 µM; stronger effect = lower value
parameterMeasured: viability (%)

INSERT INTO results (compound, parametermeasured, recordedmeasurement) VALUES
  ('CCN(CC)CCCN1C(=O)C(=O)/C(=C(/O)c2ccc3c(c2)OCO3)C1c1ccccn1 (stereo unspecified)', 'viability', 88.6),
  ('Cc1ccc(C)c(NS(=O)(=O)c2ccc(NC(=O)c3ccco3)cc2)c1', 'viability', 96.1),
  ('CC1(C)CC(=O)c2cnc(NC(=O)CSc3nc4ccccc4o3)nc2C1', 'viability', 95.7),
  ('N#CCc1nc(CSc2nc3ccccc3s2)cs1', 'viability', 82.4),
  ('N#Cc1cnc(SCC(=O)c2ccccc2)nc1N', 'viability', 76.9),
  ('Cc1noc(C)c1C(=O)Nc1sc(C)c(C)c1C#N', 'viability', 75.2);

----------
# targetUnderTest: Receptor tyrosine-protein kinase erbB-2 (Homo sapiens) (UniProt P04626)
# Sequence (P04626 whole entry, looked up): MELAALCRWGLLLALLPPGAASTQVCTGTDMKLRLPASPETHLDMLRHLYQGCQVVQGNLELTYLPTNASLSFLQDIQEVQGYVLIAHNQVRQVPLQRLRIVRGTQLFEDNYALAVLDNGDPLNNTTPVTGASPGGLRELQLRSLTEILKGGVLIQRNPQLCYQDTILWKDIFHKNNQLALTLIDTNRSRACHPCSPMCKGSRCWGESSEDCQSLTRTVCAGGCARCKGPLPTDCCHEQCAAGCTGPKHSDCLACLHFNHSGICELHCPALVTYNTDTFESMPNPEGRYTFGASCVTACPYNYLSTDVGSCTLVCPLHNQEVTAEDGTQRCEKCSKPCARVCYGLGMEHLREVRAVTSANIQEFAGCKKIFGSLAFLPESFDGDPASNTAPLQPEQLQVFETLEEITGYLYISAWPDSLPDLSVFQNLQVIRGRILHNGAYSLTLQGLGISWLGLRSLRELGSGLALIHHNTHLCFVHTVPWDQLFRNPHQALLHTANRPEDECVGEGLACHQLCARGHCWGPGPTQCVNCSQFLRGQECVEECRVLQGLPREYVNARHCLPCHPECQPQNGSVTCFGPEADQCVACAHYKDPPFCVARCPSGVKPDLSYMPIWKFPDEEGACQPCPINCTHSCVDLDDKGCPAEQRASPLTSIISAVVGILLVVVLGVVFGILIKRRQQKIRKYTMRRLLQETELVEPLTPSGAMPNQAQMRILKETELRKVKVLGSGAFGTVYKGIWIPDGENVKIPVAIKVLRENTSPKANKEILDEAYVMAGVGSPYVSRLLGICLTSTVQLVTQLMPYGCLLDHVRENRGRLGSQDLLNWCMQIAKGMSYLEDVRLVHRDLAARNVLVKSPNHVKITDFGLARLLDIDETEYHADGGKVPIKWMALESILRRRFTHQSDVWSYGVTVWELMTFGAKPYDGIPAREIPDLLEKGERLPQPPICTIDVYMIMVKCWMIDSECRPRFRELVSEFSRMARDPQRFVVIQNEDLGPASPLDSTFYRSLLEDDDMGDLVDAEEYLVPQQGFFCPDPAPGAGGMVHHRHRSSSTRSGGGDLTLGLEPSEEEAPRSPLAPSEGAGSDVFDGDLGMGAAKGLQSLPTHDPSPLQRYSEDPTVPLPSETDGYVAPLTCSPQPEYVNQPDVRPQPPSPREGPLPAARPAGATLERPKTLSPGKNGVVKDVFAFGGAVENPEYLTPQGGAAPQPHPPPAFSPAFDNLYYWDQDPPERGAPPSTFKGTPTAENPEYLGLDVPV
# methodNotes: reducers of endogenous Her2 protein level, primary screen, SKBR3 breast tumor cells, AlphaScreen, ATP viability (AID 461);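 further: lower value means less Her2 protein in the cells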
# conditionInfo: 18-24 h, at 10 µM, stronger effect = lower value
Activity calls are given as the source filed them.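 Rule for the calls: active = Her2 level under about 52% in both replicate screens, with viability over 70% of control (limit read from the data); inconclusive = Her2 under the limit in one screen only, or viability under 70%; inactive = Her2 level above the set limit.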
parameterMeasured: Her2 level

INSERT INTO assay_data (compound, recordedmeasurement) VALUES
  ('CCn1c(CSc2nnc(-c3cccnc3)n2-c2ccccc2C)nc2cc(C(=O)O)ccc21', '109% (inactive)'),
  ('COC(=O)c1cc(OC)c(OC)cc1NC(=O)CC1CCCCC1', '96.5% (inactive)'),
  ('O=C(C1CCC(CNS(=O)(=O)c2cccc3cccnc23)CC1)N1CCCC1 (centres undefined)', '104% (inactive)'),
  ('CCn1cc(C(=O)NCCN(C)CCc2ccccc2)c(=O)c2cc(S(=O)(=O)N(C)C)ccc21', '106% (inactive)'),
  ('O=C(c1ccco1)N1CCN(c2c(-c3ccccc3)c3cc(Cl)ccc3[nH]c2=O)CC1', '61.5% (inactive)'),
  ('CCn1c(SCC(=O)Nc2ccc3c(c2)OCO3)nc2c(c1=O)SC(C)C2 (centres undefined)', '102% (inactive)'),
  ('COc1ccc(S(=O)(=O)NC2CCCCC2)c(C)c1C', '91% (inactive)'),
  ('Nc1nc(CSc2nc3ccccc3[nH]2)nc(N2CCOCC2)n1', '100% (inactive)'),
  ('O=C(CC(=O)c1cc(Cl)ccc1O)c1ccccc1', '89% (inactive)'),
  ('O=C(NC1CCCCCC1)C1CCCN(S(=O)(=O)c2cccs2)C1 (centres undefined)', '118% (inactive)'),
  ('Cc1nc(C)c(C(=O)Nc2ccc(Oc3ccccc3)cc2)o1', '82% (inactive)'),
  ('COC(=O)/C=c1/s/c(=C(/C#N)C(=O)N2CCOCC2)n(-c2ccccc2)c1=O', '80.5% (inactive)'),
  ('CCOC(=O)CSc1nc2ccccc2c(=O)n1NC(=O)c1ccccc1', '78% (inactive)'),
  ('O=C(CN(c1ccccc1)S(=O)(=O)c1ccccc1)N1CCN(Cc2ccc3c(c2)OCO3)CC1', '73% (inactive)'),
  ('CC(C)(C)c1ccc(OCC(=O)O)cc1', '96.5% (inactive)'),
  ('Cn1c(=O)n(Cc2ccccc2)c(=O)c2c1nc(NCC1CCCO1)n2Cc1ccccc1 (centres undefined)', '103% (inactive)'),
  ('O=C(CCc1ccc(S(=O)(=O)N2CCOCC2)cc1)NCCc1ccccn1', '102% (inactive)'),
  ('CC(C)CNC(=O)c1ccccc1NC(=O)CN(c1ccc2c(c1)OCCO2)S(C)(=O)=O', '121% (inactive)'),
  ('COc1cccc(-c2cc3nc4c(c(N5CCC6(CC5)OCCO6)n3n2)CCCC4)c1', '67.5% (inactive)'),
  ('CCCCC(CC)C(=O)Nc1ccccc1C#N (centres undefined)', '95% (inactive)'),
  ('Cc1ccccc1OCc1nnc(SCC(=O)NCc2ccccc2)n1C', '84.5% (inactive)'),
  ('Cc1cc(C)nc(N2CCC(C(=O)Nc3ccc4c(c3)CCC4)CC2)n1', '85% (inactive)'),
  ('Cn1c(-c2ccc(C(C)(C)C)cc2)n[nH]c1=S', '106% (inactive)'),
  ('Cc1cc(NC(=O)CSc2nccn2-c2ccc(Cl)cc2)no1', '103% (inactive)'),
  ('CC(C)(C)n1nnnc1C(c1cccc(C#N)c1)N1CCC(Cc2ccccc2)CC1 (centres undefined)', '86% (inactive)'),
  ('N#Cc1cnn(Cc2ccc(Cl)cc2)c1N', '97.5% (inactive)'),
  ('O=C(NC1CCCC1)C(c1cccs1)N(C(=O)c1ccno1)c1ccccc1 (centres undefined)', '92% (inactive)'),
  ('CC(=O)CCc1ccc(OCCCCn2cncn2)cc1', '105% (inactive)'),
  ('COC(=O)Cn1c(C)nc2c(sc3nc(C)cc(C)c32)c1=O', '113% (inactive)'),
  ('O=C(NC1CCCCC1)N(Cc1ccc(F)cc1)Cc1nc2ccccc2c(=O)[nH]1', '80% (inactive)'),
  ('COc1cc(/C=N/n2c(C)nnc2C)cc(OC)c1OC', '95% (inactive)'),
  ('S=C(NCC1CCCO1)n1nnc2ccccc21 (centres undefined)', '49% (active)'),
  ('Cc1ccc2c(c1)c1c(n2CC(O)Cn2c(C)nc3ccccc32)/C(=N\O)CCC1 (centres undefined)', '76.5% (inactive)'),
  ('O=C(OCc1cccs1)c1ccccc1NS(=O)(=O)c1ccc2c(c1)OCCO2', '94% (inactive)'),
  ('CCOC(=O)N1CCC(NC(=O)c2ccc(OC)c(CN3CC(=O)N4CCCC4C3=O)c2)CC1 (centres undefined)', '93% (inactive)'),
  ('Cc1cc(C)cc(-n2ccnc2SCC(=O)Nc2ccc3c(c2)OCCO3)c1', '93.5% (inactive)'),
  ('CCOC(=O)c1ccc(N2C(=O)CC(Sc3nnc(C)s3)C2=O)cc1 (centres undefined)', '100% (inactive)'),
  ('CC1CCN(c2oc(-c3cccc4ccccc34)nc2C#N)CC1', '72.5% (inactive)'),
  ('N#C[C@@H]1[C@@H]2C(=O)N(c3ccc4c(c3)OCCO4)C(=O)[C@@H]2C2c3ccccc3C=CN21 (some centres undefined)', '72% (inactive)'),
  ('CC(C)OP(=O)(c1ccc(N(C)C)cc1)C(O)c1ccccc1F (centres undefined)', '113% (inactive)'),
  ('CCN1CCCC1CNCc1ccc(Cl)cc1Cl (centres undefined)', '116% (inactive)'),
  ('CC(C)(C)c1ccc(O)c(N)c1', '93.5% (inactive)'),
  ('CCOc1ccccc1-n1nnnc1SCC(=O)Nc1cc2oc3ccccc3c2cc1OC', '102% (inactive)'),
  ('Cc1ccc(S(=O)(=O)N2CCOCC2)cc1C(=O)Nc1ccc(-c2cn3ccsc3n2)cc1', '80.5% (inactive)');
